reported-property: melting point

- smiles-text: "COCCN(C)Cc1cc(C(=O)Nc2nc(-c3ccco3)c(-c3ccncc3)s2)ccn1"
  observed-value: "195 to 197 °C"
- smiles-text: "CC1(O)CCN(CC(=O)Nc2nc(-c3ccco3)c(C(=O)C3CCOCC3)s2)CC1"
  observed-value: "151 to 153 °C"
- smiles-text: "Cc1cc(C(=O)Nc2nc(-c3ccco3)c(C(=O)c3ccccn3)s2)ccn1"
  observed-value: "187 to 188 °C"
- smiles-text: "COc1cc(OC)cc(C(=O)Nc2nc(-c3ccco3)c(C(=O)C3CCOCC3)s2)c1"
  observed-value: "278 to 280 °C"
- smiles-text: "N#Cc1ccccc1C(=O)Nc1nc(-c2ccco2)c(C(=O)C2CCOCC2)s1"
  observed-value: "221 to 224 °C"
- smiles-text: "O=C(Nc1nc(-c2ccco2)c(C(=O)C2CCOCC2)s1)c1ccco1"
  observed-value: "196 to 198 °C"
- smiles-text: "O=C(Nc1nc(-c2ccco2)c(C(=O)c2ccccn2)s1)c1ccno1"
  observed-value: "223 to 230 °C"
- smiles-text: "Cn1ccc(C(=O)c2sc(NC(=O)c3ccncc3)nc2-c2ccco2)c1"
  observed-value: "209 to 211 °C"
- smiles-text: "O=C(Nc1nc(-c2ccco2)c(C(=O)C2CCOCC2)s1)c1ccsc1"
  observed-value: "227 to 229 °C"
- smiles-text: "O=C(Nc1nc(-c2ccco2)c(-c2ccncc2)s1)c1ccnc(CN2CCC(O)CC2)c1"
  observed-value: "203 to 208 °C"
- smiles-text: "O=C(CN1CCC2(CC1)OCCO2)Nc1nc(-c2ccco2)c(C(=O)C2CCOCC2)s1"
  observed-value: "186 to 187 °C"
- smiles-text: "N#Cc1cccc(C(=O)Nc2nc(-c3ccco3)c(C(=O)C3CCOCC3)s2)c1"
  observed-value: "257 to 260 °C"
- smiles-text: "COC1CCN(CC(=O)Nc2nc(-c3ccco3)c(C(=O)c3ccccn3)s2)CC1.Cl"
  observed-value: "220 to 232 °C (dec.)"
- smiles-text: "COC[C@H]1CCCN1CC(=O)Nc1nc(-c2ccco2)c(C(=O)C2CCOCC2)s1"
  observed-value: "103 to 104 °C"
- smiles-text: "CC1CCN(CC(=O)Nc2nc(-c3ccco3)c(C(=O)c3ccccn3)s2)CC1"
  observed-value: "104 to 106 °C"
- smiles-text: "O=C(Nc1nc(-c2ccco2)c(C(=O)c2ccccn2)s1)OC1CCCC1"
  observed-value: "162 to 163 °C"
- smiles-text: "CC(=O)c1sc(NC(=O)c2ccncc2)nc1-c1ccco1"
  observed-value: "252 to 259 °C (dec.)"

---

melting point: recorded values

- smiles-text: "COc1cccc(C(=O)c2sc(NC(=O)c3ccncc3)nc2-c2ccco2)n1"
  melting point: "247 to 250 °C"
- smiles-text: "COc1ccc(C(=O)Nc2nc(-c3ccco3)c(C(=O)C3CCOCC3)s2)cc1"
  melting point: "184 to 188 °C"
- smiles-text: "O=C(c1ccccc1)c1sc(NC(=O)C2(O)CC2)nc1-c1ccco1"
  melting point: "202 to 205 °C"
- smiles-text: "O=C(Nc1nc(-c2ccco2)c(C(=O)c2ccccc2)s1)c1ccnc(CN2CCOCC2)c1"
  melting point: "212 to 213 °C"
